molecular target: UT-B (Rattus norvegicus, UniProt P97689); construct: endogenous in cells; host or cells: erythrocytes of SD rats; experiment: erythrocyte lysis model, rat erythrocytes; assay type: cell-based, rats
Sequence (P97689 whole entry): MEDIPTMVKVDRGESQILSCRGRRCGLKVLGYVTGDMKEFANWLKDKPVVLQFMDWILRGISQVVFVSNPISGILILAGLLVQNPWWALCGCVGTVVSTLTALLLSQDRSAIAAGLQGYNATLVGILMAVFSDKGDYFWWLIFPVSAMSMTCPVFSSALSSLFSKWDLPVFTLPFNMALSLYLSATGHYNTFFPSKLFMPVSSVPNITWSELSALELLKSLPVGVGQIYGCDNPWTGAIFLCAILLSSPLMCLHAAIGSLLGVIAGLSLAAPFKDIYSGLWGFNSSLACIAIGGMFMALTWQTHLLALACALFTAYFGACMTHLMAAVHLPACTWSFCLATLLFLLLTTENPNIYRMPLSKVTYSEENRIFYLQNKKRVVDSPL
assay-readout: IC50 (nM)
# value in nM; strip the unit string

Lab note: compound O=C(Nc1ccc(NC(=O)c2ccc([N+](=O)[O-])o2)cc1)c1ccc([N+](=O)[O-])o1 tested on UT-B (Rattus norvegicus, UniProt P97689); recorded IC50 was 270

----------
Biological target: UT-B (Mus musculus, UniProt Q8VHL0)
Construct: endogenous in cells
Assay: erythrocyte lysis model, mouse erythrocytes
Settings: concentration when the erythrocyte lysis rate of mice was 50%
Method: Erythrocyte lysis rate was calculated: The formula for calculating the lysis rate percentage of erythrocytes, wherein Atest was the absorbance value of the test well, Aneg was the absorbance value of the negative control well, and Apos was the absorbance value of the positive control well. Erythrocyte lysis rate was calculated by measuring absorption at a wavelength of 710 nm. […]
pIC50: −log10 of the molar value.
If the reported pIC50 equals or exceeds 6, assign t. If not, assign f.

Past entries and their recorded results:
{"columns": ["compound", "discrete-label"],
 "data": [
  ["CN(C)C(=O)c1cccc(NC(=O)c2ccc([N+](=O)[O-])o2)c1 [Example 54]", "t"],
  ["O=C(Nc1cccc(Cl)c1)c1ccc([N+](=O)[O-])o1 [Example 38]", "f"],
  ["O=C(Nc1ccc(NC(=O)c2ccc([N+](=O)[O-])o2)cc1)c1ccc([N+](=O)[O-])o1 [Example 52]", "t"]
]}

[in] Determine whether this compound has pIC50 no lower than 6: CNC(=O)c1cccc(NC(=O)c2ccc([N+](=O)[O-])o2)c1 [Example 53]
[out] t

[in] Determine whether this compound has pIC50 no lower than 6: CNC(=O)c1cc(F)cc(NC(=O)c2ccc([N+](=O)[O-])o2)c1 [Example 66]
[out] f

[in] Determine whether this compound has pIC50 no lower than 6: Cn1cc(NC(=O)c2ccc([N+](=O)[O-])o2)cn1 [Example 22]
[out] f

[in] Determine whether this compound has pIC50 no lower than 6: C#Cc1cccc(NC(=O)c2ccc([N+](=O)[O-])o2)c1 [Example 79]
[out] f

[in] Determine whether this compound has pIC50 no lower than 6: COc1ccccc1NC(=O)c1ccc([N+](=O)[O-])o1 [Example 29]
[out] f

[in] Determine whether this compound has pIC50 no lower than 6: O=C(Nc1ccc(CCO)cc1)c1ccc([N+](=O)[O-])o1 [Example 50]
[out] f

[in] Determine whether this compound has pIC50 no lower than 6: O=C(Nc1ccon1)c1ccc([N+](=O)[O-])o1 [Example 19]
[out] f

----------
Catalogue of IC50 readings, one per entry.
target: UT-B (Rattus norvegicus); construct: endogenous in cells; host or cells: erythrocytes of SD rats; test: erythrocyte lysis model, rat erythrocytes; assay type: cell-based, rats; details: concentration when the erythrocyte lysis rate of rats was 50%; read-out: IC50 rats
# value in nM; strip the unit string

Here are 4 molecules together with their reported answers.
{"columns": ["molecule", "IC50 (nM)"],
 "data": [
  ["CNC(=O)c1cc(F)cc(NC(=O)c2ccc([N+](=O)[O-])o2)c1 [Example 66]", 870],
  ["O=C(Nc1ccccc1F)c1ccc([N+](=O)[O-])o1 [Example 35]", 3800],
  ["CCOC(=O)c1cccc(NC(=O)c2ccc([N+](=O)[O-])o2)c1 [Example 42]", 450],
  ["N#Cc1cccc(NC(=O)c2ccc([N+](=O)[O-])o2)c1 [Example 40]", 2770]
]}

For the next question, use this molecule.
Lab note: molecule O=C(Nc1cccc(O)c1)c1ccc([N+](=O)[O-])o1 [Example 32] tested on UT-B (Rattus norvegicus); recorded IC50 was 670

----------
target: UT-B (Rattus norvegicus); construct: endogenous in cells; host or cells: erythrocytes of SD rats; assay: erythrocyte lysis model, rat erythrocytes; format: cell-based, rats; conditions: concentration when the erythrocyte lysis rate of rats was 50%; read-out: IC50 rats
Catalogue of pIC50 readings, one per entry.
// pIC50 here means minus log10 of the molar concentration (mol/L)

Here are 3 compounds together with their reported answers.
{"columns": ["smiles-representation", "pIC50"],
 "data": [
  ["O=C(Nc1ccon1)c1ccc([N+](=O)[O-])o1", 4.52],
  ["CNC(=O)c1cc(NC(=O)c2ccc([N+](=O)[O-])o2)cc(C(=O)NC)c1", 4.46],
  ["COc1cccc(NC(=O)c2ccc([N+](=O)[O-])o2)c1", 5.95]
]}

Lab note: compound CN(C)CCNC(=O)c1cccc(NC(=O)c2ccc([N+](=O)[O-])o2)c1 tested on UT-B (Rattus norvegicus); recorded pIC50 was 6.68

Lab note: compound O=C(Nc1cc[nH]n1)c1ccc([N+](=O)[O-])o1 tested on UT-B (Rattus norvegicus); recorded pIC50 was 5.87

Lab note: compound NC(=O)c1cccc(NC(=O)c2ccc([N+](=O)[O-])o2)c1 tested on UT-B (Rattus norvegicus); recorded pIC50 was 6.77

Lab note: compound C#Cc1cccc(NC(=O)c2ccc([N+](=O)[O-])o2)c1 tested on UT-B (Rattus norvegicus); recorded pIC50 was 5.96

Lab note: compound O=C(NCCN1CCOCC1)c1cccc(NC(=O)c2ccc([N+](=O)[O-])o2)c1 tested on UT-B (Rattus norvegicus); recorded pIC50 was 5.96

Lab note: compound CNC(=O)c1cccc(NC(=O)c2ccc([N+](=O)[O-])o2)c1 tested on UT-B (Rattus norvegicus); recorded pIC50 was 7.82

----------
molecular target: human UT-B (Homo sapiens, UniProt Q13336); construct: endogenous in cells; host or cells: human erythrocytes; experiment: erythrocyte lysis model, human erythrocytes; assay type: cell-based; settings: concentration when the erythrocyte lysis rate of human was 50%; read-out: IC50 human
Sequence (Q13336 whole entry): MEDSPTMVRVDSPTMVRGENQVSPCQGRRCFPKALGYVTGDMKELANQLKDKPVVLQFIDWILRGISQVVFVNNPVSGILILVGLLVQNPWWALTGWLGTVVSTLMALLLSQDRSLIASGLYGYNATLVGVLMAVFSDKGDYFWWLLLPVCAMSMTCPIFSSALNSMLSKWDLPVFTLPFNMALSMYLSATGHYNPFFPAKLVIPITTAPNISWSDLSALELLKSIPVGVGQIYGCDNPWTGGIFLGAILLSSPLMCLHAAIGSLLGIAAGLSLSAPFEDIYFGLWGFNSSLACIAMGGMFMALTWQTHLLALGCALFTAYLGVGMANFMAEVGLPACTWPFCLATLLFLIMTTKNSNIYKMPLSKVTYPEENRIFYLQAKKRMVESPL
Catalogue of pIC50 readings, one per entry.
// pIC50 here means minus log10 of the molar concentration (mol/L)

Here are 4 compounds together with their reported answers.
{"columns": ["smiles-representation", "pIC50"],
 "data": [
  ["CCOC(=O)c1cc(NC(=O)c2ccc([N+](=O)[O-])o2)[nH]n1", 5.79],
  ["O=C(Nc1cccc(F)c1)c1ccc([N+](=O)[O-])o1", 5.51],
  ["O=C(NCCN1CCOCC1)c1cccc(NC(=O)c2ccc([N+](=O)[O-])o2)c1", 6.27],
  ["Cn1ccc(NC(=O)c2ccc([N+](=O)[O-])o2)n1", 5.66]
]}

pIC50 reported for this compound O=C(Nc1cccc(Cl)c1)c1ccc([N+](=O)[O-])o1 : 5.54

pIC50 reported for this compound C#Cc1cccc(NC(=O)c2ccc([N+](=O)[O-])o2)c1 : 6.09

pIC50 reported for this compound CC(C)NC(=O)c1cccc(NC(=O)c2ccc([N+](=O)[O-])o2)c1 : 5.40

pIC50 reported for this compound CCNC(=O)c1cccc(NC(=O)c2ccc([N+](=O)[O-])o2)c1 : 6.06

pIC50 reported for this compound O=C(NC1CCCCC1)c1cccc(NC(=O)c2ccc([N+](=O)[O-])o2)c1 : 5.75

pIC50 reported for this compound CC(C)CNC(=O)c1cccc(NC(=O)c2ccc([N+](=O)[O-])o2)c1 : 5.85

pIC50 reported for this compound O=C(Nc1cccc(O)c1)c1ccc([N+](=O)[O-])o1 : 6.04

----------
Molecular target: UT-B (Mus musculus, UniProt Q8VHL0)
Construct: endogenous in cells
Sequence (Q8VHL0 1-384): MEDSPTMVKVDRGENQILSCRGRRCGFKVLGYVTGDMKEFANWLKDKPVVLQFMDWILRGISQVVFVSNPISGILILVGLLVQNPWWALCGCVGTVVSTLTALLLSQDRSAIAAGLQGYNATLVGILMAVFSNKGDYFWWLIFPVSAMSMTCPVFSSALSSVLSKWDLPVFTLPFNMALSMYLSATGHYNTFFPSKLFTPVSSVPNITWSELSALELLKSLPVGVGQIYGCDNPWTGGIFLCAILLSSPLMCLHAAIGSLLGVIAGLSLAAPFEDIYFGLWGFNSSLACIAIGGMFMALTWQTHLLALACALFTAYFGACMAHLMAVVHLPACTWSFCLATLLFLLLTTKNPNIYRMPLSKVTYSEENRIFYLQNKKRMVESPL
Assay: erythrocyte lysis model, mouse erythrocytes
Details: concentration when the erythrocyte lysis rate of mice was 50%
Catalogue of log10(IC50) readings, one per entry.
Lab note - IC50 converted to log10 from values in µM.

Here are 7 compounds together with their reported answers.
{"columns": ["smiles-representation", "log10(IC50)"],
 "data": [
  ["CNC(=O)c1cc(NC(=O)c2ccc([N+](=O)[O-])o2)ccc1C", 0.09],
  ["O=C(Nc1cc[nH]n1)c1ccc([N+](=O)[O-])o1", 0.04],
  ["CN(C)CCNC(=O)c1cccc(NC(=O)c2ccc([N+](=O)[O-])o2)c1", -0.13],
  ["O=C(Nc1cccc(F)c1)c1ccc([N+](=O)[O-])o1", 0.97],
  ["NCc1ccc(NC(=O)c2ccc([N+](=O)[O-])o2)cc1", 0.23],
  ["O=C(NCCN1CCOCC1)c1cccc(NC(=O)c2ccc([N+](=O)[O-])o2)c1", 0.42],
  ["COc1cccc(NC(=O)c2ccc([N+](=O)[O-])o2)c1", 0.98]
]}

For the next question, use this compound.
log10(IC50) reported for this compound O=C(CN1CCOCC1)Nc1ccc(NC(=O)c2ccc([N+](=O)[O-])o2)cc1 : 0.87
